- test-summary: Binding affinity to Mycobacterium tuberculosis FabB C171Q mutant expressed in Mycobacterium smegmatis MC2 155 by intrinsic tryptophan fluorescence quenching-based fluorimetric method
pKi: −log10 of the molar value.
result-type: pKi

// lookup pKi for `C=C/C(C)=C/[C@@]1(C)SC(=O)C=C1OCC(=O)NCCNC(=O)OC(C)(C)C`
< 3.70

Quick one: pKi of `C=C/C(C)=C/[C@@]1(C)SC(=O)C=C1OCC(=O)NCCN=[N+]=[N-]` ?
< 3.70

Entry `C=C/C(C)=C/[C@@]1(C)SC(=O)C(C)=C1O` has what pKi?
3.76
